// melting point lookup, one value per entry
measuredProperty: melting point

CC(=O)n1ccc(-c2c(-c3ccncc3)c(-c3ccc(F)cc3)nn2CCO)cc1=O
220 to 221 °C
COC(=O)c1cc(O)c2cc(OC)ccc2c1
193 to 195 °C
COC(=O)COc1cc(C)nc(NC(=O)NS(=O)(=O)c2cccs2)n1
114 to 120 °C
Cc1ccc(-c2cc3cc(Cl)c(Cl)cc3o2)cc1
129 to 130 °C
COCCN(CC1=CCC(Oc2ccccc2)([N+](=O)[O-])C=C1)C(=O)C(Cl)Cl (stereo not given)
116 to 117 °C

---

melting point values by entry
measuredProperty: melting point

O=C(Nc1ccccc1)ONC1=Nc2ccc(Br)cc2C(c2ccccn2)=NC1
190 to 192 °C
Cc1nc2c(O[Si](C)(C)C(C)(C)C(C)C)c(CC[C@@H](O)c3ccccc3)c(C(=O)N(C)C)cn2c1C
56 to 58 °C
Cc1ncccc1-c1nc(C(F)(F)F)cn1-c1ccc(S(C)(=O)=O)cc1
160 to 161 °C
O=C(NCCOCc1ccc(C(=O)c2ccccc2)cc1)Nc1ccccc1
129 to 132 °C
Cc1noc(-c2ncn3c2[C@@H]2CCCN2C(=O)c2cc(F)ccc2-3)n1
248 to 249 °C
Cc1ccsc1-c1nc(CCl)co1
95 to 96 °C
CC1=Cc2ccc(Cl)cc2C(c2ccc([N+](=O)[O-])c(C)c2)=NN1C(=O)Oc1ccccc1
188 to 190 °C
Nc1ccncc1Nc1ccc2cn[nH]c2c1
214 to 216 °C
COc1cc(C(=O)[C@H](C)NC(=O)C(F)(F)F)c(OC)cc1Br
144 to 145 °C
Cc1cc(SC(C)C)c(NC(=O)CSc2nc3ccccc3s2)c(SC(C)C)n1
117 to 118 °C
Clc1ccc2c(c1)CCc1cccnc1C2=C1CCN(Cc2ccc(Cl)nc2)CC1
76.2 to 81.7 °C
CCN1C(=O)C(OC(=O)C(C)(C)C)=C(c2c(C)cc(C)cc2C)C1=O
91 °C
O=CCC1Cc2ccc(F)cc2C1=O (racemic)
62 °C
CCCCOC(=O)NC1C(=O)N(OCC(=O)OC(c2ccccc2)c2ccccc2)C1C (stereo not given)
105 to 108 °C
Cc1cc(SC2=C(O)CC(CCc3cccs3)(C(C)C)OC2=O)c(C(C)(C)C)cc1CO (stereo not given)
73 to 77 °C
CCC(=CC(CNC(=O)c1cnc2ccccc2c1)=NO)C(C)[N+](=O)[O-] (stereo not given)
168 to 170 °C
CCOC(=O)Cn1c(=O)n(S(=O)(=O)c2ccc(Cl)cc2)c(=O)c2ccccc21
208 to 209 °C
O=C(NCc1cccnc1)c1ccnc(N2CCN(CC3CC3)C2=O)c1
122 to 123 °C
O=C(O)c1cccc(-c2cccc([N+](=O)[O-])c2)c1
271 to 272 °C
C=C(C)c1cccc2c1nc(-c1c(F)cccc1F)n2Cc1c(F)cccc1F
156 to 158 °C
